- assay name: chemical genetic growth profiling, strain panel (AID 1159580);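 also: tested at 20 µM; growth read once vehicle control cultures reached saturation at 30 °C; 1 = growth at the plate median or of vehicle wells; lower values mean less growth of the strain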
- condition description: S. cerevisiae deletion strains, growth OD, locus YNL071W, strain lat1, stronger effect = lower value
The whole screen tested about 5,500 compounds, of which about 2,000 (36%) were called active. About 18% were inconclusive and are not listed. Some of the results follow.
measure: normalized growth

Use these answered entries as a reference point.
compound	measured value
CC(=O)OC1CCC2(O)CC1(C)CCC1C2CC1(C)C (stereo not drawn)	1.03 (inactive)
CC(C)=CCC/C(C)=C/CO	0.988 (inactive)
CC(=O)CCCCn1c(=O)c2c(ncn2C)n(C)c1=O	1.01 (inactive)
O=c1c(O)c(-c2ccccc2)oc2cccc(O)c12	0.568 (active)
Cn1c(=O)c2c(ncn2C)n(C)c1=O	0.995 (inactive)
O=c1c(O)cccc2cc(O)c(O)c(O)c12	0.833 (active)

Please look at the items below and tell me normalized growth for each one, in order.
1. Oc1cc2c(cc1O)C(c1ccccc1)CNCC2 (stereo not drawn)
2. C=C(C)C1Cc2c(ccc3c(=O)c4c(oc23)COc2cc(OC)c(OC)cc2-4)O1 (stereo not drawn)

RESULT:
1: 0.964 (inactive); 2: 0.981 (inactive)

Give normalized growth for each listed item.
1. C/C(=C\CO)CC[C@H](C)CCC[C@H](C)CCCC(C)C
2. NC(=NCCCCCCN=C(N)N=C(N)Nc1ccc(Cl)cc1)N=C(N)Nc1ccc(Cl)cc1

RESULT:
1.13 [resistant] (active)
0.0604 (active)

Batch of 8 compounds: report normalized growth for each.
1. CC1(C)CC23C(=O)CCC(O)C2(C)CCC13 (stereo not drawn)
2. COc1ccccc1OCC(O)COC(N)=O (stereo not drawn)
3. Oc1cccc2cccnc12
4. CC(=O)Nc1c(I)cc(I)c(C(=O)O)c1I
5. CON
6. COc1cc(Cc2cnc(N)nc2N)cc(OC)c1OC
7. Cn1c(=O)[nH]c2nc[nH]c2c1=O
8. CCC1(C2=NCCN2)Cc2ccccc2O1 (stereo not drawn)

RESULT:
1: 0.991 (inactive); 2: 0.982 (inactive); 3: 0.0618 (active); 4: 0.987 (inactive); 5: 0.985 (inactive); 6: 1.01 (inactive); 7: 1 (inactive); 8: 1.01 (inactive)

###

- assay name: chemical genetic growth profiling, strain panel (AID 1159580)
- condition description: S. cerevisiae deletion strains, growth OD, locus YFR003C, strain YPI1, stronger effect = lower value
The campaign covered roughly 5,500 compounds. About 2,000 (36%) were called active. About 18% were inconclusive and are not listed. The list shows a part of the results.
measure: normalized growth
Give bare numbers.

Take a look at these entries with their results.
compound	normalized growth
Cc1cc(C)c2cc(C(=O)NCCNc3ccc(C(F)(F)F)cn3)[nH]c2c1	0.976
CC(C)Sc1c(Cl)cccc1NC(=O)Nc1cccc(C(F)(F)F)c1	0.974
O=C1C(NCc2ccccc2)=C(NCc2ccccc2)C(=O)c2ccccc21	0.912
CC(C)(C)c1ccc(-c2cc(NC(=O)c3ccc(Cl)cc3)n[nH]2)cc1	1.01
FC(F)(F)c1ccncc1-c1nc(-c2ccc(Cl)cc2)cs1	0.985
O=C(Nc1cc(Cl)cc(Cl)c1)c1cc(Cl)ccc1O	0.935
COc1ccc(Oc2ccc([N+](=O)[O-])cc2C(=O)O/N=C(/N)c2ccc(C(F)(F)F)cc2)cc1	1.01
C=CCC1C(=O)N(S(=O)(=O)c2ccc(Cl)cc2)N=C1CCC (configuration not stated)	0.996

// batch mode: one normalized growth value per listed entry
1. O=C1c2ccccc2C(=O)c2sccc21
2. COc1cc(C2SCCS2)cc(Br)c1OC(=O)NC(=O)c1c(Cl)cccc1Cl

RESULT:
1: 0.694; 2: 0.948

###

Give measured normalized growth for each item. Keep answers brief.
- assay name: chemical genetic growth profiling, strain panel (AID 1159580)
- condition description: S. cerevisiae deletion strains, growth OD, locus YBL105C, strain PKC1, stronger effect = lower value
Screen size: about 5,500 compounds; about 2,000 (36%) were called active. Another 18% or so got no clear call; they are omitted. The list shows a part of the results.
Give bare numbers.

Consider the reported normalized growth for these compounds:
compound	measure	measured value
O=C(OCCNc1ccc([N+](=O)[O-])cn1)c1ccc([N+](=O)[O-])o1	normalized growth	0.927
O=[N+]([O-])c1cc(C(F)(F)F)ccc1Sc1n[nH]c(-c2cc(Cl)cc(Cl)c2)n1	normalized growth	0.954
O=[N+]([O-])c1ccc(NCc2ccc(Cl)c(Cl)c2)nc1	normalized growth	0.936
COC(=O)c1cc([N+](=O)[O-])ccc1S(=O)(=O)Cc1ccc(Cl)cc1	normalized growth	0.983
O=C1C(NCc2ccccc2)=C(NCc2ccccc2)C(=O)c2ccccc21	normalized growth	0.915
Cc1oc(C(C)(C)C)cc1-c1cc(NC(=O)c2ccccc2)n[nH]1	normalized growth	0.98
O=C(Nc1ccccc1Sc1ccc(C(F)(F)F)cc1[N+](=O)[O-])C(Cl)Cl	normalized growth	0.994
COC(=O)c1cc(I)c(OC(C)=O)c(I)c1	normalized growth	0.958

QUERY: Return the recorded normalized growth value; entry: C=CCC1C(=O)N(S(=O)(=O)c2ccc(Cl)cc2)N=C1CCC (centres undefined)
RESULT: 0.994

###

- assay name: chemical genetic growth profiling, strain panel (AID 1159580);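 also: tested at 20 µM; growth read once vehicle control cultures reached saturation at 30 °C; 1 = growth at the plate median or of vehicle wells; lower values mean less growth of the strain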
- condition description: S. cerevisiae deletion strains, growth OD, locus YBR231C, strain swc5, stronger effect = lower value
Among all 5,500 compounds or so, about 2,000 (36%) were called active. Roughly 18% stayed inconclusive and do not appear here. The list shows a part of the results.
Give measured normalized growth for each item. Keep answers brief.
Answers are plain numbers.

Worked cases, answers included:
compound	normalized growth
Cc1cc2nc3c(=O)[nH]c(=O)nc-3n(CC(O)C(O)C(O)CO)c2cc1C (stereo unspecified)	1.01
O=c1c(O)c(-c2ccc(O)cc2)oc2ccccc12	0.794
CC(=O)OC[C@@]1(O)C[C@@]23CCC4c5ccoc5CC[C@]4(C)C2CC[C@@H]1C3 (stereo partly specified)	1.01
CN1CCCCC1c1ccc(-c2cccnc2)nc1 (stereo unspecified)	0.982
CC(=O)OCC1=C(C(=O)O)N2C(=O)[C@@H](NC(=O)CSc3ccncc3)[C@H]2SC1	1.04
CC(C)[C@@H]1CC[C@@H](C)CC1=O	0.988

Hi there! I need normalized growth for each item below, if you can.
1. CC(=O)OC1CCC23CC1(C)CCC2C(C)(C)CC3OC(C)=O (stereo unspecified)
2. CCCc1ncc(C[n+]2ccccc2C)c(N)n1

RESULT:
[1.02, 0.966]

Batch request: normalized growth per item, same order as input.
1. O=C(O)c1cc(=O)c2ccccc2[nH]1
2. OC[C@H]1O[C@@H](Oc2ccc(O)cc2)[C@H](O)[C@@H](O)[C@@H]1O
3. CC12CCC(O)CC1CCc1ccccc12 (stereo unspecified)
4. O=C(/C=C/c1ccc(O)cc1)c1ccc(O)cc1O
5. CC1=C(C(=O)O)N2C(=O)[C@@H](NC(=O)[C@@H](N)c3ccc(O)cc3)[C@H]2SC1
6. O=C1C=CC(=O)c2c(O)c(Cl)c(Cl)c(O)c21

RESULT:
0.998
1
0.998
0.979
1.04
0.0695

###

- assay name: chemical genetic growth profiling, strain panel (AID 1159580);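 also: tested at 20 µM; growth read once vehicle control cultures reached saturation at 30 °C; 1 = growth at the plate median or of vehicle wells; lower values mean less growth of the strain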
- condition description: S. cerevisiae deletion strains, growth OD, locus YGL167C, strain pmr1, stronger effect = lower value
About 2,000 (36%) of roughly 5,500 compounds were called active. About 18% were inconclusive and are not listed. The list shows a part of the results.
Hi there, I'd appreciate the recorded normalized growth for every entry that follows.

Count: 4. Required value per item: normalized growth.
1. Cc1cc(O)c2c(c1)C(=O)c1cccc(O)c1C2=O
2. COCC1=C(C(=O)OC(C)OC(=O)OC(C)C)N2C(=O)[C@@H](NC(=O)/C(=N\OC)c3csc(N)n3)[C@H]2SC1 (some centres not stated)
3. CC(C)N1C(=O)c2ccccc2NS1(=O)=O
4. CC(NC(C)(C)C)C(=O)c1cccc(Cl)c1 (configuration not stated)

RESULT:
1. 0.987 (inactive)
2. 0.967 (inactive)
3. 0.958 (inactive)
4. 0.991 (inactive)

###

- assay name: chemical genetic growth profiling, strain panel (AID 1159580);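 also: tested at 20 µM; growth read once vehicle control cultures reached saturation at 30 °C; 1 = growth at the plate median or of vehicle wells; lower values mean less growth of the strain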
- condition description: S. cerevisiae deletion strains, growth OD, strain wtn01
The campaign covered roughly 5,500 compounds. About 2,000 (36%) were called active. Not shown: some 18% with an inconclusive outcome. Cut-off read from the data, not from the text of the source: active = normalized growth mostly below about 0.91 (no sharp cut-off); inconclusive = no clear call, values can overlap the other calls; inactive = mostly above about 0.92. The list shows a part of the results.
Please reply with one of these outcomes: 1.0 (active), 0.0 (inactive)

compound	assigned class
O=C1NS(=O)(=O)c2ccccc21	0.0
COc1cc(O)ccc1C(C)=O	0.0
CNC(=O)Oc1ccccc1OC(C)C	0.0
CCCN(CCC)c1c([N+](=O)[O-])cc(C(F)(F)F)cc1[N+](=O)[O-]	0.0
O=c1c(O)c(-c2ccccc2)oc2ccccc12	0.0

QUERY: GET /call?item= O=c1c(O)c(-c2ccccc2)oc2ccc3occc3c12 returns the recorded outcome of this test.
RESULT: 1.0

QUERY: What outcome does the record of this test show for NC(Cc1ccc(Cl)cc1)C(=O)O (stereo unspecified) ?
RESULT: 0.0

QUERY: Look up the recorded call for COC(=O)c1cc(OC)c(=O)c2c(OC)c(OC)ccc2c1 in this test.
RESULT: 0.0

QUERY: GET /call?item= CN1CCC[C@H]1c1cccnc1 returns the recorded outcome of this test.
RESULT: 0.0

QUERY: Status in this test for CC(C)c1cc2c(c(O)c1O)[C@@]1(C(=O)O)CCCC(C)(C)C1CC2 (stereo partly specified) ?
RESULT: 0.0

QUERY: # lookup: test call for CC(C)=CCC/C(C)=C/CO
RESULT: 0.0
